- EXPERIMENT SUMMARY: Stability in liver microsomes
- Type: in vitro ADME
- MEASUREMENT CONDITIONS: 2 μM peptidomimetic, human liver microsomes, 37° C.
Non-standard residues stand in square brackets, D forms with d. Residues, ends and D or L forms follow the SMILES beside them. ξ: configuration not given here. ξBip(2'-Et-4'-OMe) = CCc1cc(OC)ccc1-c1ccc(CC(N)C(=O)O)cc1; ξNva(5-(3-Cl-Ph)) = NC(CCCc1cccc(Cl)c1)C(=O)O; Ac5c = NC1(C(=O)O)CCCC1
MEASUREMENT KIND: half-life (t1/2) when incubated with liver microsomes

| MOLECULE | ASSAY RESULT |
| --- | --- |
| CCc1cc(OC)ccc1-c1ccc(CC(NC(=O)[C@H](CC(=O)O)NC(=O)[C@H](CO)NC(=O)[C@@H](NC(=O)C(C)(Cc2ccccc2F)NC(=O)[C@@H](NC(=O)CNC(=O)[C@H](CC(C(F)(F)F)C(F)(F)F)NC(=O)C(C)(C)NC(=O)[C@@H](N)Cc2c[nH]cn2)[C@@H](C)O)[C@H](C)O)C(=O)NC(CCCc2ccccc2F)C(N)=O)cc1 (single isomer, unassigned) | (5) h |
| CCc1cc(OC)ccc1-c1ccc(CC(NC(=O)[C@H](CC(=O)O)NC(=O)[C@H](CO)NC(=O)[C@@H](NC(=O)[C@H](Cc2ccccc2)NC(=O)[C@@H](NC(=O)CNC(=O)[C@H](CCC(N)=O)NC(=O)C2(NC(=O)[C@@H](N)Cc3c[nH]cn3)CCCC2)[C@@H](C)O)[C@@H](C)O)C(=O)NC(CCCc2cccc(Cl)c2)C(N)=O)cc1 (stereo partly drawn) [compound 27] (H-H[Ac5c]QGTFTSD[ξBip(2'-Et-4'-OMe)][ξNva(5-(3-Cl-Ph))]-NH2) | (5) h |
| CCc1cc(OC)ccc1-c1ccc(CC(NC(=O)[C@H](CC(=O)O)NC(=O)[C@H](CO)NC(=O)[C@@H](NC(=O)C(C)(Cc2ccccc2F)NC(=O)[C@@H](NC(=O)CNC(=O)C(CCC#N)NC(=O)C(C)(C)NC(=O)[C@H](Cc2c[nH]cn2)NC(=O)OC)[C@@H](C)O)[C@@H](C)O)C(=O)NC(CCCc2ccccc2)C(N)=O)cc1 (single isomer, unassigned) | (5) h |

* * *

- EXPERIMENT SUMMARY: Stability in simulated gastric fluid
- Assay type: in vitro ADME
- MEASUREMENT CONDITIONS: 2 μM peptidomimetic, simulated gastric fluid pH 1.5, 37° C., 24 h
# % degradation of peptidomimetics in 24 h when incubated with simulated gastric fluid values compiled below
Please respond with the number in % and leave the unit unwritten.

| MOLECULE | UNIT NAME | ASSAY RESULT |
| --- | --- | --- |
| CCc1cc(OC)ccc1-c1ccc(CC(NC(=O)[C@H](CC(=O)O)NC(=O)[C@H](CO)NC(=O)[C@@H](NC(=O)C(C)(Cc2ccccc2F)NC(=O)[C@@H](NC(=O)CNC(=O)C(CCC#N)NC(=O)C(C)(C)NC(=O)[C@H](Cc2c[nH]cn2)NC(C)=O)[C@@H](C)O)[C@@H](C)O)C(=O)NC(CCCc2ccccc2F)C(N)=O)cc1 (single isomer, unassigned) [compound 207] | % | 00 |
| CCc1cc(OC)ccc1-c1ccc(CC(NC(=O)[C@H](CC(=O)O)NC(=O)[C@H](CO)NC(=O)[C@@H](NC(=O)C(C)(Cc2ccccc2F)NC(=O)[C@@H](NC(=O)CNC(=O)[C@H](CC(C(F)(F)F)C(F)(F)F)NC(=O)C(C)(C)NC(=O)[C@@H](N)Cc2c[nH]cn2)[C@H](C)O)[C@H](C)O)C(=O)NC(CCCc2ccccc2F)C(N)=O)cc1 (stereo partly drawn) [compound 229] | % | 100 |

Just so you know, measured % degradation of peptidomimetics in 24 h when incubated with simulated gastric fluid for CCc1cc(OC)ccc1-c1ccc(CC(NC(=O)[C@H](CC(=O)O)NC(=O)[C@H](CO)NC(=O)[C@@H](NC(=O)C(C)(Cc2ccccc2F)NC(=O)[C@@H](NC(=O)CNC(=O)[C@H](CC(C(F)(F)F)C(F)(F)F)NC(=O)C(C)(C)NC(=O)[C@@H](N)Cc2c[nH]cn2)[C@H](C)O)[C@@H](C)O)C(=O)NC(CCCc2ccccc2)C(N)=O)cc1 (stereo partly drawn) [compound 226] came out at 100

* * *

Parameter: blood glucose levels. Scope: all listed entries.
- System: C57BL/6J mice (mild hyperglycemic)
- EXPERIMENT SUMMARY: In vivo glucose reduction, acute single dose 120-min time-course, i.p. route
- Design: species or system mouse; unit not given here
- MEASUREMENT CONDITIONS: male C57BL/6J mice, 30 nM/kg i.p., 30 min
Please state the value as a number alone, without comment.

Record for CCc1cc(OC)ccc1-c1ccc(CC(NC(=O)[C@H](CC(=O)O)NC(=O)[C@H](CO)NC(=O)[C@@H](NC(=O)C(C)(Cc2ccccc2F)NC(=O)[C@@H](NC(=O)CNC(=O)C(CCC#N)NC(=O)C(C)(C)NC(=O)[C@@H](N)Cc2c[nH]cn2)[C@H](C)O)[C@H](C)O)C(=O)N(C)C(CCCc2ccccc2)C(N)=O)cc1 (single isomer, unassigned) under target or system C57BL/6J mice (mild hyperglycemic): blood glucose levels reported as 119

The value of blood glucose levels recorded for CCc1cc(OC)ccc1-c1ccc(CC(NC(=O)[C@H](CC(=O)O)NC(=O)[C@H](CO)NC(=O)[C@@H](NC(=O)[C@H](Cc2ccccc2)NC(=O)[C@@H](NC(=O)CNC(=O)C(CCC#N)NC(=O)C(C)(C)NC(=O)[C@@H](N)Cc2c[nH]cn2)[C@@H](C)O)[C@@H](C)O)C(=O)NC(CCCc2cc(C)cc(C)c2)C(N)=O)cc1 (single isomer, unassigned) when tested on C57BL/6J mice (mild hyperglycemic) reads 117

* * *

- EXPERIMENT SUMMARY: Stability in simulated intestinal fluid
- Type: in vitro ADME
- MEASUREMENT CONDITIONS: 2 μM peptidomimetic, simulated intestinal fluid pH 7.5, 37° C.; read-out: half-life (t1/2) when incubated with simulated intestinal fluid
Starred links: 1 amine or outer side, 2 acyl side, 3 side chain; linkers in the order of their positions; H or OH if unused. Non-standard residues stand in square brackets, D forms with d. Residues, ends and D or L forms follow the SMILES beside them. ξ: configuration not given here. ξBip(2'-Et-4'-OMe) = CCc1cc(OC)ccc1-c1ccc(CC(N)C(=O)O)cc1; X2 = O=C(C(CCCc1ccccc1Cl)N[*:1])[*:2]; Ac3c = NC1(C(=O)O)CC1
MEASUREMENT KIND: half-life at 2 μM (min)
Give a bare numeral; the unit min is implied.

half-life at 2 μM measured on CCc1cc(OC)ccc1-c1ccc(CC(NC(=O)[C@H](CC(=O)O)NC(=O)[C@H](CO)NC(=O)[C@@H](NC(=O)[C@H](Cc2ccccc2)NC(=O)[C@@H](NC(=O)CNC(=O)[C@H](CCC(N)=O)NC(=O)C2(NC(=O)[C@@H](N)Cc3c[nH]cn3)CC2)[C@@H](C)O)[C@@H](C)O)C(=O)NC(CCCc2ccccc2Cl)C(N)=O)cc1 (some centres unmarked) [compound 74] (H-H[Ac3c]QGTFTSD[ξBip(2'-Et-4'-OMe)][X2]-NH2) = 30

* * *

- MEASURED ON: Human GLP-1 receptor (Homo sapiens)
- Construct: The full-length cDNA was cloned in pcDNA3.1(+); expressed in transfected cells
- Sequence (P43220 24-463): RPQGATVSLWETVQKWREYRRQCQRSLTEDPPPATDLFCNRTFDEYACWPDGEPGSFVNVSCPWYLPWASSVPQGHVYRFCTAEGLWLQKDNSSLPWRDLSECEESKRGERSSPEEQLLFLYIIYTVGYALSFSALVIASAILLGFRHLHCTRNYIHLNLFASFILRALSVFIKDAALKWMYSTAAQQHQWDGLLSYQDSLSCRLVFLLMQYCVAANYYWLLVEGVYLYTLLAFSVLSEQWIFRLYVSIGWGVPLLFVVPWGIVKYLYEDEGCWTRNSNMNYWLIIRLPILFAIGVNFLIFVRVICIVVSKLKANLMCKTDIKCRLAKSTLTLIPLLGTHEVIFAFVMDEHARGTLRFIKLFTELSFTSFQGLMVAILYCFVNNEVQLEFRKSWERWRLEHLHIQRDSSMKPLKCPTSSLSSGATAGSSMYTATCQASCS
- EXPERIMENT SUMMARY: In vitro Human GLP-1 R agonist activity (cyclic AMP determination) in CHO/human GLP1R cells
- Type: cell-based
- MEASUREMENT CONDITIONS: 10 nM test compound
MEASUREMENT KIND: Human GLP-1 R activity (cAMP release), % activity with respect to control (%)
Just the number in %, nothing appended.

# example entries with known answers
| MOLECULE | ASSAY RESULT |
| --- | --- |
| CCc1cc(OC)ccc1-c1ccc(CC(NC(=O)[C@H](CC(=O)O)NC(=O)[C@H](CO)NC(=O)[C@@H](NC(=O)[C@H](Cc2ccccc2)NC(=O)[C@@H](NC(=O)CNC(=O)[C@H](CCC(N)=O)NC(=O)C(C)(C)NC(=O)[C@@H](N)Cc2c[nH]cn2)[C@@H](C)O)[C@@H](C)O)C(=O)NC(CCCc2cccc(Cl)c2)C(N)=O)cc1 (single isomer, unassigned) [compound 19] | 99 |
| CCc1cc(OC)ccc1-c1ccc(CC(NC(=O)[C@H](CC(=O)O)NC(=O)[C@H](CO)NC(=O)[C@@H](NC(=O)[C@H](Cc2ccccc2)NC(=O)[C@@H](NC(=O)CNC(=O)C(CCC#N)NC(=O)C(C)(C)NC(=O)[C@@H](N)Cc2c[nH]cn2)[C@@H](C)O)[C@@H](C)O)C(=O)NC(CCCc2ccccc2F)C(N)=O)cc1 (single isomer, unassigned) [compound 77] | 81 |
| CCc1cc(OC)ccc1-c1ccc(CC(NC(=O)[C@H](CC(=O)O)NC(=O)[C@H](CO)NC(=O)[C@@H](NC(=O)[C@H](Cc2ccccc2)NC(=O)[C@@H](NC(=O)CNC(=O)C(CCC#N)NC(=O)C(C)(C)NC(=O)[C@@H](N)Cc2c[nH]cn2)[C@@H](C)O)[C@@H](C)O)C(=O)NC(CCCc2ccc(C(F)(F)F)cc2F)C(N)=O)cc1 (single isomer, unassigned) [compound 81] | 98 |
| CCc1cc(OC)ccc1-c1ccc(CC(NC(=O)[C@H](CC(=O)O)NC(=O)[C@H](CO)NC(=O)[C@@H](NC(=O)C(C)(Cc2ccccc2F)NC(=O)[C@@H](NC(=O)CNC(=O)C(CCC#N)NC(=O)C(C)(C)NC(=O)[C@H](Cc2c[nH]cn2)NC(C)=O)[C@@H](C)O)[C@@H](C)O)C(=O)NC(CCCc2ccccc2F)C(N)=O)cc1 (single isomer, unassigned) [compound 207] | 81 |
| CCc1cc(OC)ccc1-c1ccc(CC(NC(=O)[C@H](CC(=O)O)NC(=O)[C@H](CO)NC(=O)[C@@H](NC(=O)C(C)(Cc2ccccc2F)NC(=O)[C@@H](NC(=O)CNC(=O)[C@H](CC(C(F)(F)F)C(F)(F)F)NC(=O)C(C)(C)NC(=O)[C@@H](N)Cc2c[nH]cn2)[C@@H](C)O)[C@H](C)O)C(=O)NC(CCCc2ccccc2F)C(N)=O)cc1 (single isomer, unassigned) [compound 224] | 99 |

// moving on: another record for Human GLP-1 R activity (cAMP release), % activity with respect to control
Lookup result for CCc1cc(OC)ccc1-c1ccc(CC(NC(=O)[C@H](CC(=O)O)NC(=O)[C@H](CO)NC(=O)[C@@H](NC(=O)[C@H](Cc2ccccc2)NC(=O)[C@@H](NC(=O)CNC(=O)C(CCC#N)NC(=O)C(C)(C)NC(=O)[C@@H](N)Cc2c[nH]cn2)[C@@H](C)O)[C@@H](C)O)C(=O)NC(CCCc2ccccc2Cl)C(N)=O)cc1 (single isomer, unassigned) [compound 82] ; measured Human GLP-1 R activity (cAMP release), % activity with respect to control: 99
